List of EC50 values.
- Test target: NL20 human bronchial epithelial cells expressing human Z-AAT (Homo sapiens, UniProt P01009, E366K)
- Construct: expressed in transfected cells; host or cells: NL20 human bronchial epithelial cells (NL20-SI line, doxycycline added)
- Sequence (P01009 25-418 E366K): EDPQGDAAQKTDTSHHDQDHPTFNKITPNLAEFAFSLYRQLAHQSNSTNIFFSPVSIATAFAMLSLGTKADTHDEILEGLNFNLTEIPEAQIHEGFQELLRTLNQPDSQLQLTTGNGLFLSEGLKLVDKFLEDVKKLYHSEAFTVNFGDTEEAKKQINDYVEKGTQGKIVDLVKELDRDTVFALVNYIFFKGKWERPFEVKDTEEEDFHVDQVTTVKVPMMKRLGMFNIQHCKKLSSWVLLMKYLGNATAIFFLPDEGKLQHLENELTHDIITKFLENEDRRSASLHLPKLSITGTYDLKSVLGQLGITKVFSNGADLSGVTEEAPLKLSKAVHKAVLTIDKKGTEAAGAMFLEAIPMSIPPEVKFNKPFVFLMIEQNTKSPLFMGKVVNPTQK
- Assay procedure: AAT Function Assay (MSD Assay NL20-SI Cell Line)
- Format: cell-based
- Reported conditions: functionally active AAT (AAT-hNE complex) in supernatant of NL20 cells expressing human Z-AAT; read-out: NL20 Func. (EC50)

In the examples that follow, each entry is paired with its recorded EC50.
[
  {
    "Molecule": "Cc1cc(-n2c(C(C)C)c(C(C)CC(=O)O)c3cc4[nH]ncc4cc32)ccc1F (single isomer, unassigned) [Compound 28]",
    "Observation type": "EC50",
    "Observed result": "< 1160 nM"
  },
  {
    "Molecule": "C[C@]1(C(=O)O)C[C@@H](c2c(C3CCOCC3)n(-c3ccc(F)cc3)c3cc4cn[nH]c4cc32)C1 (single isomer, unassigned) [Compound 114]",
    "Observation type": "EC50",
    "Observed result": "> 3000 nM"
  },
  {
    "Molecule": "CC1(C(=O)O)CC(c2c(C3CCOCC3)n(-c3ccc(F)c(F)c3)c3cc4cn[nH]c4cc23)C1 (single isomer, unassigned) [Compound 70]",
    "Observation type": "EC50",
    "Observed result": "< 1160 nM"
  },
  {
    "Molecule": "NC(=O)[C@H]1C[C@@H](c2c(C3CCOCC3)n(-c3ccc(F)cc3)c3cc4cn[nH]c4cc32)C1 [Compound 160]",
    "Observation type": "EC50",
    "Observed result": "> 3000 nM"
  },
  {
    "Molecule": "Cc1cc(-n2c(C(C)C)c(C3CC(C(=O)O)C3)c3cc4[nH]ncc4cc32)ccc1F (mixture of isomers) [Compound 18]",
    "Observation type": "EC50",
    "Observed result": "< 1160 nM"
  }
]

Here's the next entry for you.
Find the recorded EC50 belonging to Cc1cc(-n2c(C(C)C)c(C(=O)N3CCN(C)CC3)c3cc4[nH]ncc4cc32)ccc1F [Compound 5] and report it.
> 3000 nM

Ref: patent US11623924B2
